Data provenance: patent US20190071480A1

measurement-target: T1, extracellular domain of activin receptor type IIB (ActRIIBecd), biotinylated (Homo sapiens (Human), UniProt Q13705 27-117, amino-biotinylated with amine-PEG3-Biotin)
T1 construct: immobilised on a streptavidin-coated sensor chip; also called biotinylated ActRIIBecd; extracellular domain of ActRIIB
T1 sequence: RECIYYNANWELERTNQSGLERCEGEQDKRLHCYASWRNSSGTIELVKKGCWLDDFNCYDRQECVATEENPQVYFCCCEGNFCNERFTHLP
assay-remarks: Mean KD column of Table 5; method not restated (BIAcore as Example 5); species also listed in Table 4
Bridges are numbered along the chain shown (N, C = ends).
Exercise: for every item that follows, state its recorded pKd.
One number for each entry, as −log10 of the molar value.

SEQ ID NO: 218, cysteine pairs C15-C15^b, C29-C64^a, C30-C62^a (designed binder, disulfide 29-64, 30-62; also: homodimer via intermolecular C15-C15 disulfide, homodimer by intermolecular disulfide) AQAKHKQRKRLKSSCKRHPLYNSKIPKACCVPTELSAISMLYLDENEKVVLKNYQDMVVEGCGCR :: 7.73
SEQ ID NO: 348, cysteine pairs C15-C15^b, C29-C64^a, C30-C62^a, C88-C92^a (designed binder, disulfides C15-C15 (inter), C29-C64 (intra), C30-C62 (intra), C88-C92 (intra), homodimer by intermolecular disulfide) GQAKRKGYKRLKSSCKRHPLYNSKIPKACCVPTELSAISMLYLDENEKVVLKNYQDMVVEGCGCRVDFSDVGWNDWIVAPPGYHAFYCHGECPFPLADHLNSTNHAIVQTLVNSV :: 8.17
SEQ ID NO: 242, cysteine pairs C15-C15^b, C29-C62^a, C30-C64^a (designed binder, disulfide 29-62, 30-64; also: homodimer via intermolecular C15-C15 disulfide, homodimer by intermolecular disulfide) GQAKRKGYKRLKSSCKRHPLYNSKDPKACCVPTELSAPSPLYLDENEKPVLKNYQDMVVHGCGCR :: 7.75

I'm hoping you can list pKd for every binder here, please.
1. SEQ ID NO: 332, cysteine pairs C79-C80^a (designed binder, disulfides C79-C80 (intra)) GQAKRKGYKRLKSSCKRHPLYVDFSDVGWNDWIVAPPGYHAFYCHGECPFPLADHLNSTNHAIVQTLVNSVNSKDPKACCVPTELSAPSPLYLDENEKPVLKNYQDMVVHGCGCR
2. SEQ ID NO: 324, cysteine pairs C80-C114^a, C79-C112^a, C44-C48^a (designed binder, disulfides C80-C114 (intra), C79-C112 (intra), C44-C48 (intra)) AQAKHKQRKRLKSSCKRHPLYVDFKDVGWNDHAVAPPGYHAFYCHGECPFPLADHLNSDNHAIVQTKVNSVNSKIPKACCVPTELSAISMLYLDENEKVVLKNYQDMVVEGCGCR
3. SEQ ID NO: 276, cysteine pairs C8-C9^a (designed binder, disulfides C8-C9 (intra)) NSKIPKACCVPTELSAISMLYLDENEKVVLKNYQDMVVEGCGCRVDFSDVGWNDWIVAPPGYHAFYCHGECPFPLADHLNSTNHAIVQTLVNSVAQAKHKQRKRLKSSCKRHPLY
4. SEQ ID NO: 348, cysteine pairs C15-C15^b, C29-C62^b, C30-C64^b, C88-C92^a (designed binder, disulfides C15-C15 (inter), C29-C62 (inter), C30-C64 (inter), C88-C92 (intra), homodimer by intermolecular disulfide) GQAKRKGYKRLKSSCKRHPLYNSKIPKACCVPTELSAISMLYLDENEKVVLKNYQDMVVEGCGCRVDFSDVGWNDWIVAPPGYHAFYCHGECPFPLADHLNSTNHAIVQTLVNSV
5. SEQ ID NO: 260, cysteine pairs C80-C114^a, C79-C112^a, C44-C48^a (designed binder, disulfides C80-C114 (intra), C79-C112 (intra), C44-C48 (intra)) AQAKHKQRKRLKSSCKRHPLYVDFSDVGWNDWIVAPPGYHAFYCHGECPFPLADHLNSTNHAIVQTLVNSVNSKIPKACCVPTELSAISMLYLDENEKVVLKNYQDMVVEGCGCR

1: 7.54; 2: 8.14; 3: 7.55; 4: 8.20; 5: 8.08
